# Target system: DPP-IV from porcine kidneys (Sus scrofa, UniProt P22411)
# Sequence (P22411 whole entry): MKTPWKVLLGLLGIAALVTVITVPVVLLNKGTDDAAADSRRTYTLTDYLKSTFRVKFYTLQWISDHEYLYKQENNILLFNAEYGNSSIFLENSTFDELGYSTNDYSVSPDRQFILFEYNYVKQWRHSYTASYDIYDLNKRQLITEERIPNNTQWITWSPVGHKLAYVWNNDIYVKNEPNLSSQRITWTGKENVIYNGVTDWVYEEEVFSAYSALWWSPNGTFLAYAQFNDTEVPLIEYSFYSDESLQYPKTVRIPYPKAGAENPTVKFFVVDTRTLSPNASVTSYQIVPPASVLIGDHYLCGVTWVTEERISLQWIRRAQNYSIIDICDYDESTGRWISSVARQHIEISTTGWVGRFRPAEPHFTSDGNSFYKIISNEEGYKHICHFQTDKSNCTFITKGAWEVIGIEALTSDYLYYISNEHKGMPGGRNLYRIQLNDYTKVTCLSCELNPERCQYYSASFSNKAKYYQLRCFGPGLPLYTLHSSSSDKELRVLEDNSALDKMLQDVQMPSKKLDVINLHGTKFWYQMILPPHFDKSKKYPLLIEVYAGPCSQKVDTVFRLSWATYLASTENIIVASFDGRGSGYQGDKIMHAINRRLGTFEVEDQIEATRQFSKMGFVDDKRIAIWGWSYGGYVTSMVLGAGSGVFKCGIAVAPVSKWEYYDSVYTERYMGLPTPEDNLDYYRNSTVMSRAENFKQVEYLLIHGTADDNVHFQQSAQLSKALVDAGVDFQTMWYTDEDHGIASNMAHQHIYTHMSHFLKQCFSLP
Counter-ions that a name gives are not always drawn.
Property name: IC50 (nM)
One number for each entry, in nM.

-- ask Fill in IC50 for CC(C)=CCn1c(N2CCC[C@@H](N)C2)nc2ccc(NC(=O)c3ccccc3)cc21 [Example 1, trifluoroacetic acid salt] tested with DPP-IV from porcine kidneys (Sus scrofa, UniProt P22411).
-- reply 2500
